Test system: PC3
test-description: inhibition of growth of cell lines (IC50 categories)
Assay type: cell-based
assay-conditions: Homo sapiens, PC-3
pIC50: −log10 of the molar value.
Exercise: for every item that follows, state its recorded pIC50.

The reported pIC50 of the compound O=c1[nH]cnc2c1ccc1c2c2ccccc2n1CCCF was < 4.70

Reported pIC50 of CCCn1c2ccccc2c2c3c(ccc21)C(=O)NCC3 : < 4.70

Notebook: O=C1CCc2c1ccc1c2c2c(F)cccc2n1CCCF , pIC50 read as < 4.70

Lab note: measured pIC50 of CCCn1c2ccccc2c2c3c(ccc21)C(=O)N(C)C3 was < 4.70

Reported pIC50 for O=C1CCCc2c(ccc3c2c2ccccc2n3CCCF)N1 was 4.70 to 5.30

----------
Test system: PC3
test-description: inhibition of growth of cell lines (IC50 categories)
Type: cell-based
assay-conditions: Homo sapiens, PC-3
pIC50: −log10 of the molar value.
measured-parameter: pIC50

Kindly note: PC3, Cn1ncc2c(ccc3c2c2ncccc2n3CCCF)c1=O , pIC50 value reported: < 4.70

Kindly note: PC3, CCCn1c2cccnc2c2c3c(ccc21)C(=O)CC3 , pIC50 value reported: 4.70 to 5.30

Assay PC3, sample O=C1CCc2c1ccc1c2c2cc(Br)ccc2n1CCCF , pIC50 read: < 4.70

Field pIC50 (system: PC3) for entry O=C1NCCc2c1ccc1c2c2ncccc2n1CCCF = < 4.70

Tested on PC3, the item CCCn1c2ccccc2c2c3c(ccc21)C(=O)CCC3 showed pIC50 equal to < 4.70

----------
test-description: aqueous solubility (pH 7.4)
Format: physicochemical
measured-parameter: Aqueous Solubility Classification

A selection of reference data follows.
CN1Cc2c(ccc3c2c2ccccc2n3CCC(F)F)C1=O [PLA1194] | Moderate
O=C1CCc2c1ccc1c2c2c(F)cccc2n1CCCF [PLA1197] | Low
CC(=O)c1ccc2c(c1)c1c(C(N)=O)cccc1n2CCCF [PLA1191] | High
O=c1c2ccc3c(c2ccn1CCO)c1ccccc1n3CCCF [PLA1192] | Moderate

Record summary for O=c1c2ccc3c(c2ccn1CCN1CCCC1)c1ccccc1n3CCCF [PLA1193] : reported Aqueous Solubility Classification = High

----------
Tested on: CWR22R cells
Format: cell-based
measured-parameter: CC50 (µM)
Reply with just the number (in µM).

The value of CC50 measured for the compound CCCn1c2ccccc2c2cc(-c3nnco3)ccc21 turned out to be 0.12

compound FCCCn1c2ccccc2c2cc(-c3nnco3)ccc21 , CC50 observed: 0.1

The value of CC50 measured for the compound O=C1NCCOc2c1ccc1c2c2ccccc2n1CCCF turned out to be 0.2

Notebook: CC(=O)c1ccc2c(c1)c1ccccc1n2CCCF , CC50 read as 0.04

Noted for CCCn1c2ccccc2c2c3c(ccc21)C(=O)N(C)C3 : its CC50 reads 0.04
